Test system: primary rat mixed cortical cells
EXPERIMENT_SUMMARY: In vitro myelination assay (MBP positive myelin strands, fold myelin pixels above background)
Format: cell-based
PROTOCOL_CONDITIONS: Rattus norvegicus, 10.0 μM compound; read-out: Fold myelin pixels above background relative to baseline of no added compound
READOUT: fold induction at 10 µM

> print(dat)
                                   compound  value.reported
1  Cc1cc(Nc2ncn(-c3cc(F)cc(F)c3)n2)cc(N2CCN3CC(F)(F)C[C@H]3C2)c1       10 to 100
2  Cc1cc(Nc2ncn(-c3cc(F)cc(F)c3)n2)cc(N2CC[C@H](N3CCCC3)C2)c1             ≤ 1
3  Cc1cc(Nc2ncn(-c3cc(F)cc(F)c3)n2)cc(N2CCN(CCCN3CCCC3)CC2)c1             ≤ 1
4  Cc1cc(Nc2ncn(-c3cccc(C(F)F)c3)n2)cc(N2CCN(C3COC3)CC2)c1             ≤ 1
5  Cc1cc(Nc2ncn(-c3cc(F)cc(F)c3)n2)cc(N2CCOC(COCC3CC3)C2)c1 (centres unmarked)         1 to 10
6  CCOCCN1CCN(c2cc(C)cc(Nc3ncn(-c4cc(F)cc(F)c4)n3)c2)CC1             ≤ 1
7  Cc1cc(Nc2ncn(-c3cc(F)cc(F)c3)n2)cc(NC2CC(N3CCOCC3)C2)c1 (centres unmarked)             ≤ 1
8  Cc1cc(Nc2ncn(-c3cc(F)cc(F)c3)n2)cc(N2CC(N3CCCOCC3)C2)c1             ≤ 1
